# MEASUREMENT_TARGET: human GPR40 receptor (Homo sapiens, UniProt O14842)
# Sequence (O14842 whole entry): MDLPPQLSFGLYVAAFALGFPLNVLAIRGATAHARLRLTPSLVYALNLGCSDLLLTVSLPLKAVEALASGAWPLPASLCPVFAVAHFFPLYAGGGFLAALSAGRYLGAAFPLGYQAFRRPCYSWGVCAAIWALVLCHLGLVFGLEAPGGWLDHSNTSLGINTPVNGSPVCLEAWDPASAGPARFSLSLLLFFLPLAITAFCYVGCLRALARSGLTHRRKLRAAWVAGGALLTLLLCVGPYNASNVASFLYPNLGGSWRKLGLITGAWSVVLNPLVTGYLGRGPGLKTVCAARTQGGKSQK
# PROTOCOL_DESCRIPTION: IP1 accumulation measurements using the IPOne assay system
# APPLIED_CONDITIONS: 1321N1 cells stably expressing human GPR40; stimulation 1 h at 37° C.
QUANTITY_NAME: pEC50
Note: pEC50 values are expressed as the negative base-10 logarithm of concentration in M.

Dear colleague, I am looking for the recorded pEC50 of the following compound: COc1cc(Oc2ccc(F)c3c2CC[C@H]3Oc2ccc3c(c2)OC[C@H]3CC(=O)O)ccn1
8.40

Item O=C(O)C[C@@H]1COc2cc(O[C@@H]3CCc4c(Oc5ccncc5)ccc(F)c43)ccc21 has what recorded pEC50?
7.74

Field request: pEC50 | item: Cn1cnc2cc(Oc3ccc(F)c4c3CC[C@H]4Oc3ccc4c(c3)OC[C@H]4CC(=O)O)ccc21
6.05

Any idea what its pEC50 is? The compound is Cn1ncc2ccc(Oc3ccc(F)c4c3CC[C@H]4Oc3ccc4c(c3)OC[C@H]4CC(=O)O)cc21
8.52

So what's the measured pEC50 for this one? N#Cc1cccc(Oc2ccc(F)c3c2CC[C@H]3Oc2ccc3c(c2)OC[C@H]3CC(=O)O)c1
8.15

Fill blank: measured pEC50 of the compound O=C(O)C[C@@H]1COc2cc(O[C@@H]3CCc4c(Oc5ccccc5)ccc(F)c43)ccc21 is ____.
8.40

Which pEC50 value belongs to O=C(O)C[C@@H]1COc2cc(O[C@@H]3CCc4c(Oc5ncc(F)cn5)ccc(F)c43)ccc21 ?
7.51

Request the reported pEC50 associated with Cc1cc(Oc2ccc(F)c3c2CC[C@H]3Oc2ccc3c(c2)OC[C@H]3CC(=O)O)cc(C)c1C#N
7.92

Which measured pEC50 value corresponds to Cc1nc2ccc(Oc3ccc(F)c4c3CC[C@H]4Oc3ccc4c(c3)OC[C@H]4CC(=O)O)cc2s1 ?
8.30

Look up pEC50 for this compound: Cc1nccc(Oc2ccc(F)c3c2CC[C@H]3Oc2ccc3c(c2)OC[C@H]3CC(=O)O)n1
6.81

Query: pEC50; subject: O=C(O)C[C@@H]1COc2cc(O[C@@H]3CCc4c(Oc5ccc(CO)c(F)c5)ccc(F)c43)ccc21
8.10

What value of pEC50 has been recorded for this entry: CN(C)c1ccc(Oc2ccc(F)c3c2CC[C@H]3Oc2ccc3c(c2)OC[C@H]3CC(=O)O)cn1
6.92

Any idea what pEC50 was measured for O=C(O)C[C@@H]1COc2cc(O[C@@H]3CCc4c(Oc5nc6ccccc6s5)ccc(F)c43)ccc21 ?
7.92

Looking for the measured pEC50 of Cc1cccc(C)c1Oc1ccc(F)c2c1CC[C@H]2Oc1ccc2c(c1)OC[C@H]2CC(=O)O , can you help?
7.15

So what does the record say about pEC50 for O=C(O)C[C@@H]1COc2cc(O[C@@H]3CCc4c(Oc5cnccn5)ccc(F)c43)ccc21 ?
7.46

Fill in the blank: the reported pEC50 of Cc1ccccc1Oc1ccc(F)c2c1CC[C@H]2Oc1ccc2c(c1)OC[C@H]2CC(=O)O is ____.
8.22

What value of measured pEC50 is listed for N#Cc1ccc(Br)cc1Oc1ccc(F)c2c1CC[C@H]2Oc1ccc2c(c1)OC[C@H]2CC(=O)O ?
8.22

Given the entry COc1cc(C#N)ccc1Oc1ccc(F)c2c1CC[C@H]2Oc1ccc2c(c1)OC[C@H]2CC(=O)O , report its measured pEC50.
8.22

State the recorded pEC50 for this entry: O=C(O)C[C@@H]1COc2cc(O[C@@H]3CCc4c(Oc5ccnc(C(F)(F)F)c5)ccc(F)c43)ccc21
8.22

Look up pEC50: N#Cc1ccc(Oc2ccc(F)c3c2CC[C@H]3Oc2ccc3c(c2)OC[C@H]3CC(=O)O)cc1F
8.22

What does the record list as pEC50 for COc1ccc(Oc2ccc(F)c3c2CC[C@H]3Oc2ccc3c(c2)OC[C@H]3CC(=O)O)nc1 ?
7.72

# get_value(readout='pEC50', item= COc1ccc(Oc2ccc(F)c3c2CC[C@H]3Oc2ccc3c(c2)OC[C@H]3CC(=O)O)cn1 )
8.30

Entry Cn1ncc2cc(Oc3ccc(F)c4c3CC[C@H]4Oc3ccc4c(c3)OC[C@H]4CC(=O)O)ccc21 has what pEC50?
8.15

Given the entry COc1c(F)cc(Oc2ccc(F)c3c2CC[C@H]3Oc2ccc3c(c2)OC[C@H]3CC(=O)O)cc1F , report its measured pEC50.
8.15

Look up pEC50 for this compound: Cc1c(Oc2ccc(F)c3c2CC[C@H]3Oc2ccc3c(c2)OC[C@H]3CC(=O)O)ccc2c1cnn2C
7.16

Given the entry N#Cc1cc(F)c(Oc2ccc(F)c3c2CC[C@H]3Oc2ccc3c(c2)OC[C@H]3CC(=O)O)c(F)c1 , report its measured pEC50.
7.74

====

# MEASUREMENT_TARGET: human GPR40 receptor (Homo sapiens)
# PROTOCOL_DESCRIPTION: IP1 accumulation measurements using the IPOne assay system
# APPLIED_CONDITIONS: 1321N1 cells stably expressing human GPR40; stimulation 1 h at 37° C.
We label by threshold. Values of EC50 strictly beneath 6 nM are Condition met. Values of 6 nM and up are Condition not met.

Criterion: EC50 strictly below 6 nM. Is it met by N#Cc1ccc(Oc2ccc(F)c3c2CC[C@H]3Oc2ccc3c(c2)OC[C@H]3CC(=O)O)c(F)c1 [Example 22] ?
Condition met

Dear colleague, could you confirm whether EC50 of Cc1cccc(Oc2ccc(F)c3c2CC[C@H]3Oc2ccc3c(c2)OC[C@H]3CC(=O)O)n1 [Example 15] falls below 6 nM? Thanks.
Condition not met

# strict comparison: is reported EC50 < 6 nM? input = COc1ncc(Oc2ccc(F)c3c2CC[C@H]3Oc2ccc3c(c2)OC[C@H]3CC(=O)O)cn1 [Example 35]
Condition not met

I wonder whether CS(=O)(=O)c1ccc(Oc2ccc(F)c3c2CC[C@H]3Oc2ccc3c(c2)OC[C@H]3CC(=O)O)cc1 [Example 18] has EC50 below 6 nM. Can you tell?
Condition not met

Consider O=C(O)C[C@@H]1COc2cc(O[C@@H]3CCc4c(Oc5ncc6ccccc6n5)ccc(F)c43)ccc21 [Example 43] . Does its EC50 lie strictly below 6 nM?
Condition not met
